Reported values of Vmax for individual entries
Biological target: hPTP1B1–400 (Homo sapiens, UniProt P18031)
Construct: h PTP1B 1–400 IC 50 (μM ± S.D); made in house
Sequence (P18031 1-400): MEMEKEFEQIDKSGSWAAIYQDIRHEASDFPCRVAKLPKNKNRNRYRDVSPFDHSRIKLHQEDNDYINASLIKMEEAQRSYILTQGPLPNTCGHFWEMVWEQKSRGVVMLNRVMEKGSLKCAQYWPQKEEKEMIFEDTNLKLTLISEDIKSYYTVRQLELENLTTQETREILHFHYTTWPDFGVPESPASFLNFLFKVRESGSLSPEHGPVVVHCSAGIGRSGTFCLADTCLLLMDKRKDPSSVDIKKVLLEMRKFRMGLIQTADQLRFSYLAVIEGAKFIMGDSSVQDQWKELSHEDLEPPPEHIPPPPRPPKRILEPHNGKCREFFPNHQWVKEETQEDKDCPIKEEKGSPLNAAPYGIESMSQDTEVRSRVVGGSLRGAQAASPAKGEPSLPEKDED
Assay: Enzymatic kinetics studies (Lineweaver–Burk, model fitting)
Assay type: biochemical
Settings: hPTP1B1–400 with inhibitor
Return type: number; implicit unit mM/min.

Look over these answered cases.
CC1(C)c2[nH]c3ccc(C(=O)O)cc3c2C[C@]2(C)[C@H]3C(=O)C=C4[C@@H]5C[C@@](C)(C(=O)O)CC[C@]5(C)CC[C@@]4(C)[C@]3(C)CC[C@@H]12 :: 1.64
CC1(C)c2[nH]c3ccc(OC(F)F)cc3c2C[C@]2(C)[C@H]3C(=O)C=C4[C@@H]5C[C@@](C)(C(=O)O)CC[C@]5(C)CC[C@@]4(C)[C@]3(C)CC[C@@H]12 :: 1.24

**Query** Data request, read-out Vmax, for CC1(C)c2[nH]c3ccc(S(N)(=O)=O)cc3c2C[C@]2(C)[C@H]3C(=O)C=C4[C@@H]5C[C@@](C)(C(=O)O)CC[C@]5(C)CC[C@@]4(C)[C@]3(C)CC[C@@H]12
**Result** 1.46

**Query** Param item: C[C@H]1[C@H](C)CC[C@]2(C(=O)O)CC[C@]3(C)C(=CC[C@@H]4[C@@]5(C)CC[C@H](O)C(C)(C)[C@@H]5CC[C@]43C)[C@H]12
**Result** 0.63

Origin of the recorded values: paper PMC12921516
